Reference for the values: the supplement of paper PMC10307832

# Tested on: NCI-H1395
# test protocol: relative viability (nuclei count vs DMSO), 5 days (fraction); higher = more cells survive
# measurement parameters: first compound 0.01 µM
measured metric: relative viability
I'd appreciate a reply containing only the number, no unit.

Before answering, review these 3 worked examples.
{"compound": "CCN(CC)CCCCNc1ncc2cc(-c3cc(OC)cc(OC)c3)c(NC(=O)NC(C)(C)C)nc2n1 + O=C(c1cc(Cc2n[nH]c(=O)c3ccccc23)ccc1F)N1CCN(C(=O)C2CC2)CC1 [Olaparib] (partner 8 µM)", "relative viability": 0.46}
{"compound": "CCN(CC)CCCCNc1ncc2cc(-c3cc(OC)cc(OC)c3)c(NC(=O)NC(C)(C)C)nc2n1 + Cc1nc(Nc2ncc(C(=O)Nc3c(C)cccc3Cl)s2)cc(N2CCN(CCO)CC2)n1 [Dasatinib] (partner 0.075 µM)", "relative viability": 0.421}
{"compound": "O=c1cc(N2CCOCC2)oc2c(-c3cccc4c3sc3ccccc34)cccc12 + CS(=O)(=O)CCNCc1ccc(-c2ccc3ncnc(Nc4ccc(OCc5cccc(F)c5)c(Cl)c4)c3c2)o1 [Lapatinib] (partner 2 µM)", "relative viability": 0.997}

Lab note: next compound to report on.
Lookup: Which relative viability is listed for CCN(CC)CCCCNc1ncc2cc(-c3cc(OC)cc(OC)c3)c(NC(=O)NC(C)(C)C)nc2n1 + CC(=O)Nc1cccc(-n2c(=O)n(C3CC3)c(=O)c3c(Nc4ccc(I)cc4F)n(C)c(=O)c(C)c32)c1 [Trametinib] (partner 0.02 µM) ?
Found: 1.05
